The reported numbers originate from patent US20200199204A1.

# system_under_test: HIV-1 Env of CAP45.G3 (HIV-1)
# experimental_protocol: cell-based or functional assay
endpoint_label: neutralization IC50

Reference set, count: 4
- CAP256-VRC26.08 (antibody, V domains shown) VH: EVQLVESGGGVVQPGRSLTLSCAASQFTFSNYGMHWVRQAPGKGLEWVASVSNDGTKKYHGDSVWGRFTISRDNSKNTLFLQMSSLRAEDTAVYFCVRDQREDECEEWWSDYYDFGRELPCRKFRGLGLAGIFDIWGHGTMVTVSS VL: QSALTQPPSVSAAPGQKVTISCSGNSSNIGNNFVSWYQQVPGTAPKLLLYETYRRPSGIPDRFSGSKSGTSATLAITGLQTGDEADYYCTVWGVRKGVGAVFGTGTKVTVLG: 4.69 µg/mL
- CAP256-VRC26.04 (antibody, V domains shown) VH: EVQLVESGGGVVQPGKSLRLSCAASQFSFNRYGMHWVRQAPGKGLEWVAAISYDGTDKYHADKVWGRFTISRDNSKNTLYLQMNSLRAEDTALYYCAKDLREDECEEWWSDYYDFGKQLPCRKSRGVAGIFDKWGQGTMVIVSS VL: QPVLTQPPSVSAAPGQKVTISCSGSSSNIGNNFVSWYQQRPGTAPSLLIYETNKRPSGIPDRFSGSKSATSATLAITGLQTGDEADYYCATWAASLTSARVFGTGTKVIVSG: > 50 µg/mL
- CAP256-VRC26.09 (antibody, V domains shown) VH: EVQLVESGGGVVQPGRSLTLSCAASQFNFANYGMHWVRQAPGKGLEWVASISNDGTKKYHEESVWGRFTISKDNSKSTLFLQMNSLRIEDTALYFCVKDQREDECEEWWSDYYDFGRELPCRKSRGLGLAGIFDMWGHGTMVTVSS VL: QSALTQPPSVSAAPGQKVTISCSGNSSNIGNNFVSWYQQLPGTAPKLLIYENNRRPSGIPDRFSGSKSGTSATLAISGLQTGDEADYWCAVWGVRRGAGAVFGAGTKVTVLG: 16 µg/mL
- CAP256-VRC26.11 (antibody, V domains shown) VH: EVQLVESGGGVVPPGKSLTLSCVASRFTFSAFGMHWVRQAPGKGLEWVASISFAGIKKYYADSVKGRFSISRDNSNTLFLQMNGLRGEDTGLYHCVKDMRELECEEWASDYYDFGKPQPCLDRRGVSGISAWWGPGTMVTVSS VL: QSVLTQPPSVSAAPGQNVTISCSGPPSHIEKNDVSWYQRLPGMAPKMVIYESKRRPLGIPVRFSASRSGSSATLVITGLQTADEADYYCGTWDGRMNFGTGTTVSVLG: > 50 µg/mL

Could you now consider this next binder?
Find the recorded neutralization IC50 belonging to CAP256-VRC26.01 (antibody, V domains shown) VH: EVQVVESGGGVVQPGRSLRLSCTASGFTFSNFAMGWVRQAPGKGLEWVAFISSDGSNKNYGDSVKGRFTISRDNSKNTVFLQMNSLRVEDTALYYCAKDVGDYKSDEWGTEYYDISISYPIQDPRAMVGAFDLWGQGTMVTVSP VL: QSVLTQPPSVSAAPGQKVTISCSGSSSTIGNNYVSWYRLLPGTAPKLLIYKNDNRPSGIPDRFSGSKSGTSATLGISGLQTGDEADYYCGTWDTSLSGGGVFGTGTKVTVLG and report it.
> 50 µg/mL
